Sourced from PubChem BioAssay (NCI)

Documented GI50 across a set of molecules
- Tested on: T-47D breast
- method notes: NCI tumour cell line growth inhibition, 48 h

>  <query smiles>
COC[C@H]1Cn2cc(-c3nc(Nc4ccnn4C)ncc3C)nc2C(=O)N1Cc1ccc(F)c(F)c1

>  <tested target>
T-47D breast

>  <GI50>
65.5 µM

$$$$
>  <query smiles>
CN(C)c1cc(NN=C(c2ccc(O)cc2)c2ccc(O)cc2)c([N+](=O)[O-])cc1[N+](=O)[O-]

>  <tested target>
T-47D breast

>  <GI50>
3.34 µM

$$$$

Please examine the following record next.
**Query** Please report the recorded GI50 for O=C(Nc1ccc(Oc2ccc(Nc3nc4ccccc4s3)cc2)cc1)Nc1ccc(Cl)c(C(F)(F)F)c1 .
**Result** 1.21 µM
